- TESTED_SYSTEM: T1, Cyno His-GDF15: HIS-tagged cyno GDF15 (cynomolgus, UniProt G7PWZ3 197-308, limits assumed)
- T1 construct: not shown: His tag
- T1 sequence (looked up): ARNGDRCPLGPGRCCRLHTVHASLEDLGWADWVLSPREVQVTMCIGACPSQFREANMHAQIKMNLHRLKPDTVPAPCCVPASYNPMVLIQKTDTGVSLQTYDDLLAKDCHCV
- METHOD_NOTES: Biacore SPR, IgG captured via anti-human Fc, GDF15 in flow
REPORTED_PROPERTY: kon (M⁻¹ s⁻¹)
Response body: numeric value in M⁻¹ s⁻¹, unit text excluded.

INSERT INTO measurements (binder, quantitative_result) VALUES
  ('ABGDF15-D (antibody, human IgG1, lambda, V domains shown, captured through anti-human Fc in the Biacore assay) VH: EVQLVQSGAEVKKPGESLKISCKGSGYSFTSYWIGWVRQMPGKGLEWMGVIDPDGSYTIYSPSFQGQVTISADKSISTAYLQWSSLKASDTAMYYCARYGRYGTYFDYWGQGTLVTVSS VL: QSVLTQPPSVSGAPGQRVTISCSGSSSNIGVLYVNWYQQLPGTAPKLLIYSNDNRPSGVPDRFSGSKSGTSASLAITGLQAEDEADYYCQSWDSSSNYVFGGGTKLTVLG', '1.67e+07');

Lookup result for ABGDF15-B (antibody, human IgG1, lambda, V domains shown, captured through anti-human Fc in the Biacore assay) VH: QVQLVQSGAEVKKPGSSVKVSCKASGGTFRSYAVSWVRQAPGQGLEWMGGIIPIFGTANYAQKFQGRVTITADESTSTAYMELSSLRSEDTAVYYCARGPIIMGYQFGLFDHWGQGTLVTVSS VL: SYELTQPLSVSVALGQTARITCSGDNIGSHIVSWYQQKPGQAPVLVIYDKSNRPSGIPERFSGSNSGNTATLTISRAQAGDEADYYCQTWDSIGSVVFGGGTKLTVLG ; measured kon: 5.52e+06

Every entry's value here was drawn from patent US20190135908A1.
